biological target: CDK4/cyclin D3 (Homo sapiens); test: Human CDK4/cyclin D3 inhibitory activity (QS S Assist CDK4/Cyclin D3_FP Kit, IMAP fluorescent polarization); details: read-out: CDK4 Activity symbol
Sequence (P11802 whole entry): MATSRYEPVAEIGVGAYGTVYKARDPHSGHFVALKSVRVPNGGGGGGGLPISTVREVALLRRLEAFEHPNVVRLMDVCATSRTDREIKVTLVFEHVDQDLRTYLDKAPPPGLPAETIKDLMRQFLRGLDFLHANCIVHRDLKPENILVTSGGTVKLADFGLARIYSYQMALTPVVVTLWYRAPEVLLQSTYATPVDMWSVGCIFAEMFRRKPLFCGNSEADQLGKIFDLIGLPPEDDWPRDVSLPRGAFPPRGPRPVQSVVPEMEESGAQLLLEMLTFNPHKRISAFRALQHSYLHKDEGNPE
Sequence (P30281 whole entry partner): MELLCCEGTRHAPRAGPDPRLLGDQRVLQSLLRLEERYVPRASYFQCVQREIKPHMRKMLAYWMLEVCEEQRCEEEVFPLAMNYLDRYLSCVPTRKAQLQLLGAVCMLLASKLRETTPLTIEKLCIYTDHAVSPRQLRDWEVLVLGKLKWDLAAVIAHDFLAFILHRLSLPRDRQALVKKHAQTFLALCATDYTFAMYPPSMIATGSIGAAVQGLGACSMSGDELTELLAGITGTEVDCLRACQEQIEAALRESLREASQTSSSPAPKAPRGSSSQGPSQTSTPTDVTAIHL
propertyLabel: IC50

Guide cases for IC50, answers given:
molecule=C[C@@H](O)c1cc2cnc(Nc3ccc(N4CCNCC4=O)cn3)nc2c(N2CCCC2)n1 propertylabel=IC50 observedvalue="< 10 nM"
molecule=C[C@@H](O)c1cc2cnc(Nc3ccc(CN4CCN(C)CC4)cn3)nc2c(N2CC(F)(F)C2)n1 propertylabel=IC50 observedvalue="10 to 100 nM"
molecule=C[C@@H](O)c1cc2cnc(Nc3ccc4c(n3)CCN(C(=O)CN3CC(F)C3)C4)nc2c(N2C3CCC2CC3)n1 propertylabel=IC50 observedvalue="< 10 nM"
molecule="CC(O)c1cc2cnc(Nc3ccc(N4CCCNCC4=O)cn3)nc2c(N2C3CCCC2CC3)n1 (stereo not shown)" propertylabel=IC50 observedvalue="< 10 nM"
molecule=C[C@@H](O)c1cc2cnc(Nc3ccc(CN4CCN(CCO)CC4)cn3)nc2c(N2CCC2)n1 propertylabel=IC50 observedvalue="10 to 100 nM"

C[C@@H](O)c1cc2cnc(Nc3ccc(C(=O)N4CCN(C)CC4)cn3)nc2c(N2CCCCCC2)n1 has a reported IC50 of < 10 nM

C[C@@H](O)c1cc2cnc(Nc3ccc(CN4CCN(C)CC4)cn3)nc2c(N2CCC(C(F)(F)F)CC2)n1 has a reported IC50 of < 10 nM

###

biological target: CDK2/cyclin A2 (Homo sapiens, UniProt P24941); construct: purchased Carna Biosciences, Inc. QS S Assist CDK2/Cyclin A2_FP Kit; assay: Human CDK2/cyclin A2 inhibitory activity (QS S Assist CDK2/Cyclin A2_FP Kit, IMAP fluorescent polarization); type: biochemical; conditions: read-out: CDK2 Activity symbol
propertyLabel: IC50

Guide cases for IC50, answers given:
compound="C[C@@H](O)c1cc2cnc(Nc3ccc(CN4CCN(CCO)C(=O)C4)cn3)nc2c(N2CCCCC2)n1 [Compound 249]" assaytarget="CDK2/cyclin A2 (Homo sapiens, UniProt P24941)" propertylabel=IC50 observedvalue="≥ 100 nM"
compound="C[C@@H](O)c1cc2cnc(Nc3ccc4c(n3)CCN(C(=O)CN3CC(F)C3)C4)nc2c(N2C3CCC2CC3)n1 [Compound 235]" assaytarget="CDK2/cyclin A2 (Homo sapiens, UniProt P24941)" propertylabel=IC50 observedvalue="≥ 100 nM"
compound="C[C@@H](O)c1cc2cnc(Nc3ccc(OC4CCNCC4)cn3)nc2c(N2CCC[C@H](F)C2)n1 [Compound 243]" assaytarget="CDK2/cyclin A2 (Homo sapiens, UniProt P24941)" propertylabel=IC50 observedvalue="≥ 100 nM"
compound="C[C@@H](O)c1cc2cnc(Nc3ccc4c(n3)CCN(C3CN(CCO)C3)C4)nc2c(N2CCCCC2)n1 [Compound 176]" assaytarget="CDK2/cyclin A2 (Homo sapiens, UniProt P24941)" propertylabel=IC50 observedvalue="≥ 100 nM"
compound="C[C@@H](O)c1cc2cnc(Nc3ccc(N4CCNCC4)nn3)nc2c(N2CCCC2C(=O)O)n1 (stereo partly drawn) [Compound 39]" assaytarget="CDK2/cyclin A2 (Homo sapiens, UniProt P24941)" propertylabel=IC50 observedvalue="≥ 100 nM"

C[C@@H](O)c1cc2cnc(Nc3ccc4c(n3)CCN(C(=O)[C@H]3CCNC3)C4)nc2c(N2CCCCC2)n1 [Compound 210] has a reported IC50 of ≥ 100 nM

C[C@@H](O)c1cc2cnc(Nc3ccc(CN4CCN(CCO)CC4)cn3)nc2c(N2CCC(F)(F)CC2)n1 [Compound 79] has a reported IC50 of ≥ 100 nM

C[C@@H](O)c1cc2cnc(Nc3ccc(CN4CCN(C)CC4)cn3)nc2c(N2CC[C@@H](F)C2)n1 [Compound 116] has a reported IC50 of ≥ 100 nM

C[C@@H](O)c1cc2cnc(Nc3ccc(OC4CCNCC4)cn3)nc2c(N2C3CCC2CC3)n1 [Compound 220] has a reported IC50 of ≥ 100 nM

C[C@@H](O)c1cc2cnc(Nc3ccc4c(n3)CCN(C(=O)CN3CC[C@H](O)C3)C4)nc2c(N2C3CCC2CC3)n1 [Compound 233] has a reported IC50 of ≥ 100 nM

C[C@@H](O)c1cc2cnc(Nc3ccc4c(n3)CCN(C(=O)C3CCNCC3)C4)nc2c(N2CCCCC2)n1 [Compound 147] has a reported IC50 of ≥ 100 nM

C[C@@H](O)c1cc2cnc(Nc3ccc(N4CCNCC4=O)cn3)nc2c(N2C3CCCC2CC3)n1 [Compound 281] has a reported IC50 of ≥ 100 nM

C[C@@H](O)c1cc2cnc(Nc3ccc(CN4CCN(C)CC4)cn3)nc2c(N2CCCC2)n1 [Compound 55] has a reported IC50 of ≥ 100 nM

C[C@H]1CCN(c2nc([C@@H](C)O)cc3cnc(Nc4ccc(CN5CCN(CCO)CC5)cn4)nc23)C1 [Compound 99] has a reported IC50 of ≥ 100 nM

C[C@@H](O)c1cc2cnc(Nc3ccc(C(=O)N4CC[C@@H](N(C)C)C4)cn3)nc2c(N2CCCCC2)n1 [Compound 312] has a reported IC50 of ≥ 100 nM
